Molecular target: Protein deacetylase HDAC6 (Homo sapiens, UniProt Q9UBN7)
Sequence (Q9UBN7 whole entry): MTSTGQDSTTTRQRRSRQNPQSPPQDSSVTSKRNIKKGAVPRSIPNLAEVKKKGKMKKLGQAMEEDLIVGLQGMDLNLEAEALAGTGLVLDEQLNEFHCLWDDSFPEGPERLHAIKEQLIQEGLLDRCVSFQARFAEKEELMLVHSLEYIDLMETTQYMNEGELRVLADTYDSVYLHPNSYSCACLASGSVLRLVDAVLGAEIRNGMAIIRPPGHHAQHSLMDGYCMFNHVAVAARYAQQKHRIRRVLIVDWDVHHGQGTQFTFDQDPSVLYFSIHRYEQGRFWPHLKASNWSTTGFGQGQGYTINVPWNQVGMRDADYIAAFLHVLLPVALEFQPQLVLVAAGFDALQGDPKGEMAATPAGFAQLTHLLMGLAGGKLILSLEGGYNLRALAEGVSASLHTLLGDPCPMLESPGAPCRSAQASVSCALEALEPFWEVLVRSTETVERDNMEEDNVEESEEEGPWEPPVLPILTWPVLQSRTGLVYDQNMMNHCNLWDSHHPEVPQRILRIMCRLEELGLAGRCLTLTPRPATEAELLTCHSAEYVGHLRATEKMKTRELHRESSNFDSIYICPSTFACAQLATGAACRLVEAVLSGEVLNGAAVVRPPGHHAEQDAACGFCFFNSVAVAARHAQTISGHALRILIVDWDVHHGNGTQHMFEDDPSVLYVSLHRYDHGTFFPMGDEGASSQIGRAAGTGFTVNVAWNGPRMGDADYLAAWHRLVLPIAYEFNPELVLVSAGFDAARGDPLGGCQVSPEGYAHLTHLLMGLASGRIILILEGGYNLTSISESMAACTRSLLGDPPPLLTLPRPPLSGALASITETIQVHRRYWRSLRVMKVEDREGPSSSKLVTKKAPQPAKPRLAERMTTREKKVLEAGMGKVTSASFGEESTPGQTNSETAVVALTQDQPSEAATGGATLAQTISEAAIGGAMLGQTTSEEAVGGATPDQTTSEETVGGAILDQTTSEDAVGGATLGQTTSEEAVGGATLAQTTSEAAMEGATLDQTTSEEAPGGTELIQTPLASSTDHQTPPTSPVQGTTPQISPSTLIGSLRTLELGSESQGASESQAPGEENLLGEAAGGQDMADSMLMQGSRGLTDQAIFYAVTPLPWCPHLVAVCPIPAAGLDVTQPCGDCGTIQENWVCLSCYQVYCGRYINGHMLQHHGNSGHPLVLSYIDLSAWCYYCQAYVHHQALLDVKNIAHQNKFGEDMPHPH
Literature survey of IC50 (system: Protein deacetylase HDAC6 (Homo sapiens, UniProt Q9UBN7)).
Please use 1 (yes) for IC50 under 40 nM and 0 (no) for everything else, ties included.

>  <compound>
O=C(/C=C/c1ccc(Nc2ncc(Cl)c(OC3CCCCC3)n2)cc1)NO

>  <assay system>
Protein deacetylase HDAC6 (Homo sapiens, UniProt Q9UBN7)

>  <group label>
0 (no)

$$$$
>  <compound>
Cc1c2ccc(Nc3ccnc(Nc4ccc(OCCCCCCC(=O)NO)cc4)n3)cc2nn1C

>  <assay system>
Protein deacetylase HDAC6 (Homo sapiens, UniProt Q9UBN7)

>  <group label>
0 (no)

$$$$
>  <compound>
CCCNNC(=O)c1ccc(S(=O)(=O)n2ccc3cc(OCCCN4CCCCC4)ccc32)cc1

>  <assay system>
Protein deacetylase HDAC6 (Homo sapiens, UniProt Q9UBN7)

>  <group label>
0 (no)

$$$$
>  <compound>
O=C(NO)c1ccc(CN2C(=O)C3=C(CCN(Cc4ccc(Cl)c(C(F)(F)F)c4)C3)N3CCN=C23)cc1

>  <assay system>
Protein deacetylase HDAC6 (Homo sapiens, UniProt Q9UBN7)

>  <group label>
1 (yes)

$$$$
>  <compound>
O=C(CCCCCCNC(=O)c1cc2cc(-c3cn[nH]c3)ccc2s1)NO

>  <assay system>
Protein deacetylase HDAC6 (Homo sapiens, UniProt Q9UBN7)

>  <group label>
1 (yes)

$$$$
>  <compound>
O=C(NO)c1ccc(CNC(=O)[C@@H]2Cc3c([nH]c4ccccc34)[C@@H](C3CC3)N2Cc2ccc(Cl)cc2)cc1

>  <assay system>
Protein deacetylase HDAC6 (Homo sapiens, UniProt Q9UBN7)

>  <group label>
1 (yes)

$$$$
>  <compound>
O=C(NO)c1ccc(CNC(=O)[C@@H]2Cc3c([nH]c4ccccc34)[C@@H](C3CC3)N2Cc2ccccc2)cc1

>  <assay system>
Protein deacetylase HDAC6 (Homo sapiens, UniProt Q9UBN7)

>  <group label>
1 (yes)

$$$$
>  <compound>
COc1ccc(CN2[C@H](C)c3[nH]c4ccccc4c3C[C@H]2C(=O)NCc2ccc(C(=O)NO)cc2)cc1

>  <assay system>
Protein deacetylase HDAC6 (Homo sapiens, UniProt Q9UBN7)

>  <group label>
1 (yes)

$$$$
>  <compound>
Cc1cccc(CN2CCC3=C(C2)C(=O)N(Cc2ccc(C(=O)NO)cc2)C2=NCCN23)c1

>  <assay system>
Protein deacetylase HDAC6 (Homo sapiens, UniProt Q9UBN7)

>  <group label>
0 (no)

$$$$
>  <compound>
O=C(CCCCCCn1c2cc3c(cc2c2ncc4ccccc4c21)OCO3)NO

>  <assay system>
Protein deacetylase HDAC6 (Homo sapiens, UniProt Q9UBN7)

>  <group label>
1 (yes)

$$$$
>  <compound>
COc1cccc(CN2CCC3=C(C2)C(=O)N(Cc2ccc(C(=O)NO)cc2)C2=NCCN23)c1

>  <assay system>
Protein deacetylase HDAC6 (Homo sapiens, UniProt Q9UBN7)

>  <group label>
0 (no)

$$$$
>  <compound>
CCc1c(C#N)c(SC(C(N)=O)c2ccccc2)nc(N(C)C2CCN(c3ncc(C(=O)NO)cn3)CC2)c1C#N (stereo not drawn)

>  <assay system>
Protein deacetylase HDAC6 (Homo sapiens, UniProt Q9UBN7)

>  <group label>
1 (yes)

$$$$
>  <compound>
Nc1ccccc1NC(=O)c1ccc(S(=O)(=O)n2ccc3cc(OCc4ccccc4)ccc32)cc1

>  <assay system>
Protein deacetylase HDAC6 (Homo sapiens, UniProt Q9UBN7)

>  <group label>
0 (no)

$$$$
>  <compound>
C#CCN1CCN(CCCOc2ccc3c(ccn3S(=O)(=O)c3ccc(C(=O)Nc4ccccc4N)cc3)c2)CC1

>  <assay system>
Protein deacetylase HDAC6 (Homo sapiens, UniProt Q9UBN7)

>  <group label>
0 (no)

$$$$
>  <compound>
C#CCN1CCN(CCCOc2ccc3c(ccn3S(=O)(=O)c3ccc(C(=O)NN)cc3)c2)CC1

>  <assay system>
Protein deacetylase HDAC6 (Homo sapiens, UniProt Q9UBN7)

>  <group label>
0 (no)

$$$$
>  <compound>
O=C(NO)c1ccc(CN2C(=O)C3=C(CCN(Cc4cccc(Br)c4)C3)N3CCN=C23)cc1

>  <assay system>
Protein deacetylase HDAC6 (Homo sapiens, UniProt Q9UBN7)

>  <group label>
1 (yes)

$$$$
>  <compound>
O=C(NO)c1ccc(CN2C(=O)C3=C(CCN(Cc4ccccc4)C3)N3CCN=C23)cc1

>  <assay system>
Protein deacetylase HDAC6 (Homo sapiens, UniProt Q9UBN7)

>  <group label>
0 (no)

$$$$
>  <compound>
COc1ccc2[nH]c3c(c2c1)CCN(Cc1ccc(/C=C/C(=O)NO)cc1)C3

>  <assay system>
Protein deacetylase HDAC6 (Homo sapiens, UniProt Q9UBN7)

>  <group label>
1 (yes)

$$$$
>  <compound>
O=C(NO)c1ccc(CN2C(=O)C3=C(CCN(Cc4cccc(Cl)c4)C3)N3CCN=C23)cc1

>  <assay system>
Protein deacetylase HDAC6 (Homo sapiens, UniProt Q9UBN7)

>  <group label>
0 (no)

$$$$
>  <compound>
Cc1ccc(CN2CCC3=C(C2)C(=O)N(Cc2ccc(C(=O)NO)cc2)C2=NCCN23)cc1

>  <assay system>
Protein deacetylase HDAC6 (Homo sapiens, UniProt Q9UBN7)

>  <group label>
0 (no)

$$$$
>  <compound>
O=C(NO)c1ccc(CNC(=O)[C@@H]2Cc3c([nH]c4ccccc34)[C@@H](c3ccccc3)N2)cc1

>  <assay system>
Protein deacetylase HDAC6 (Homo sapiens, UniProt Q9UBN7)

>  <group label>
1 (yes)

$$$$
>  <compound>
COc1cc(OC)c(/C=C/S(=O)(=O)Cc2ccc(OC)c(NCC(=O)O)c2)c(OC)c1

>  <assay system>
Protein deacetylase HDAC6 (Homo sapiens, UniProt Q9UBN7)

>  <group label>
0 (no)

$$$$
>  <compound>
COc1ccc2c(ccn2S(=O)(=O)c2ccc(C(=O)NN)cc2)c1

>  <assay system>
Protein deacetylase HDAC6 (Homo sapiens, UniProt Q9UBN7)

>  <group label>
0 (no)

$$$$
